System: Trypanosoma cruzi
ASSAY_DETAILS: Trypanosoma cruzi phosphomannomutase and mannose-1-phosphate guanylyltransferase assay
Format: functional
Parameters: scale not given: direction of the effect not stated beside the values
CONDITION_DETAILS: 10 µM
Parameter Percent Effect: see the listing below.
State the answer as a number, implicitly in %.

In one line, give reported Percent Effect of the entry NCC1(c2cccc(Br)c2)CCOCC1 .
-2.93

In one line, give reported Percent Effect of the entry Cc1cccc(CN2CC[C@@H]3[C@@H]2CCN3C(=O)c2ccno2)n1 .
6.84

In one line, give reported Percent Effect of the entry CCOCC(O)CN1CCN(C(=O)Cc2ccccc2Cl)CC1 (configuration not stated) .
-8.08

In one line, give reported Percent Effect of the entry O=C(Cc1csc(-c2ccco2)n1)N1CCN(CCO)CC1 .
0.308

In one line, give reported Percent Effect of the entry CCOCC(O)CN1CCN(C(=O)Cc2ccccc2C)CC1 (configuration not stated) .
-8.65

New cases:
In one line, give reported Percent Effect of the entry NC(=O)CN1CCCN(C(=O)Cc2ccc(F)c(Br)c2)CC1 .
-3.61

In one line, give reported Percent Effect of the entry CN1CCN(Cc2ccoc2)Cc2cccnc21 .
-5.16

In one line, give reported Percent Effect of the entry CC(C)CN1C[C@H]2C[C@H](C(=O)Nc3cccnc3)[C@@H](C1)O2 .
-7.33

In one line, give reported Percent Effect of the entry NCC1[C@H]2CN(CCc3ccccc3)C[C@@H]12 (some centres not stated) .
-4.5

In one line, give reported Percent Effect of the entry Cc1ncsc1CN1CC[C@H]2C[C@H](c3ccncn3)O[C@@H]2C1 .
-9.57

In one line, give reported Percent Effect of the entry C[C@H]1C(=O)NC[C@H]2CN(Cc3ccccc3)C[C@H]21 .
1.5

In one line, give reported Percent Effect of the entry CCCN1CCN(Cc2nccn2CC)C(C)C1 (configuration not stated) .
-2.54

Reference for the values: ChEMBL document CHEMBL3988442
